# Test system: PCSK9 gene
# assay-details: PCSK9 gRNA/SpCas9 editing in primary human hepatocytes (Tables 2, 4)
# Assay type: cell-based
# test-settings: 500 ng/RNA/mL; SpCas9 mRNA MS002 1:1 by weight
# Protocol: In set of experiments, PCSK9 gRNAs were co-transfected with an equivalent amount (1:1 ratio by weight) of in vitro transcribed commercially available SpCas9 mRNA MS002 purchased from TriLink Biotechnologies into primary human hepatocytes at 2500, 500, or 100 ng/RNA/mL and processed as described in detailed methods. Extracted genomic DNA was analyzed for gene editing at the target site with next-generation sequencing of PCR amplicons generated around the target sites. […]
In the oligonucleotide strings, read from the 5' end, every base follows the letter of its sugar. An asterisk marks phosphorothioate; unmarked linkages are phosphodiester. Other units and linkages are bracketed, terminal groups are in braces. A string of capitals states the bases alone. m = 2'-O-methyl; r = 2'-OH (RNA)
Catalogue of Human Primary Hepatocyte Editing % 500 readings, one per entry.
measured-parameter: Human Primary Hepatocyte Editing % 500

# molecule, measured-parameter, value-observed
measured = [
    ("GA161: PCSK9 gRNA; protospacer GGACGAGGACGGCGACTACG (SEQ ID NO: 155) (nucleic acid) guide: mG*mG*mA*rCrGrArGrGrArCrGrGrCrGrArCrUrArCrGrGrUrUrUrUrArGrArGrCrUrArGrArArArUrArGrCrArArGrUrUrArArArArUrArArGrGrCrUrArGrUrCrCrGrUrUrArUrCrArArCrUrUrGrArArArArArGrUrGrGrCrArCrCrGrArGrUrCrGrGrUrGrCrU*mU*mU*mU", "Human Primary Hepatocyte Editing % 500", "8.74%"),
    ("GA193: PCSK9 gRNA; protospacer GGGGCTGGTATTCATCCGCC (SEQ ID NO: 187) (nucleic acid, sugars from the 5' end m3 r94 m3, linkages s3 o93 s3 (s phosphorothioate, o phosphodiester), T or U not given here) guide: GGGGCUGGUAUUCAUCCGCCGUUUUAGAGCUAGAAAUAGCAAGUUAAAAUAAGGCUAGUCCGUUAUCAACUUGAAAAAGUGGCACCGAGUCGGUGCUUUU", "Human Primary Hepatocyte Editing % 500", "15.68%"),
    ("GA197: PCSK9 gRNA; protospacer AGTGACCACCGGGAAATCGA (SEQ ID NO: 191) (nucleic acid, sugars from the 5' end m3 r94 m3, linkages s3 o93 s3 (s phosphorothioate, o phosphodiester), T or U not given here) guide: AGUGACCACCGGGAAAUCGAGUUUUAGAGCUAGAAAUAGCAAGUUAAAAUAAGGCUAGUCCGUUAUCAACUUGAAAAAGUGGCACCGAGUCGGUGCUUUU", "Human Primary Hepatocyte Editing % 500", "3.29%"),
]
